Cited source for all entries: the supplement of paper PMC9170038

# Test system: MS2 coat protein
# testProtocol: apparent KD of MS2 coat protein, switch OFF state (with FMN for OFF switches, without FMN for ON switches); designed switch direction (-1 OFF switch, 1 ON switch): 1; higher = weaker reporter binding
# condition: FMN input: 0 or 200 uM; Eterna round: R93 (includes R88 designs)
Classification scheme (apparent KD of MS2 coat protein): lo = under 30 nM, med = from 30 nM up to 70 nM, hi = 70 nM and over

Qu. Please classify: AAAAAAAAUGUGUAGGAUAUCAGUAAAAAUACAUGAGGAUCACCCAUGUUCAAAAAAAAAAAAACUGAGAAGGACGUGGAUGGUCC [Design 3]
Ans. lo

Qu. # bin label for AAGAAACAUGAGGAUCACCCAUGUAAGAAUAUGGGAGGAUAUACAAGGACAAGAGUCAAGGUAGAAGGCCUAAGAA [Mat - Same State 1 - Meechl mod - D143]
Ans. hi

Qu. Lab log: GCAGGGCUACACUAGGAUAUGGGUGUCUAAACAUGAGGAUCACCCAUGUGAUGGCAAAACAAAGCUCAGAAGGAGUCGUAGCCCA [Bebirare] — assign apparent KD of MS2 coat protein category
Ans. lo

Qu. Band for the recorded apparent KD of MS2 coat protein of AUAUGAGCUAAUGAGGAUAUCCAUAAUAAGACAUGAGGAUCACCCAUGUAAACAAAACAAUAAUGGGAGAAGGCAUUAGCUCAAU [SS 2 M49] ?
Ans. med

Qu. Given GGGAGGAAGAGAGAGGAUAUCCAAAGGAAAACAUGAGGAUCACCCAUGUAAAAGGUAGGAAAUUGGGAGAAGGCUCAAAAGAGGG [salish99-ss2-038] , name the class its apparent KD of MS2 coat protein places it in.
Ans. med

Further cases:
Qu. Which bin should I file AAAAGACAUGAGGAUCACCCAUGUAAAAACGUAGGAGGAUAUGUAUGGAAACCAGACUGUACAGAAGGCCUCUGUC [SS1 - 72] under?
Ans. lo

Qu. # bin label for GAGGACAUAGUUCAGGAUAUAUGAAUAGUCACAUGAGGAUCACCCAUGUCCAUUUAUAUGGGCACAUAGAAGGGAGGUAGUUAUC [SameState2 Malc#26]
Ans. hi

Qu. Classify this sequence: GUUGAACAUGAGGAUCACCCAUGUCUCAACAGUCAAGGAUAUGGGUCAUGCAGAUGAAUACCAGAAGGUGAAUAAA [Zaorxe]
Ans. med

Qu. Input AAAAAACAUGAGGAUCACCCAUGUAAAAAAAACACAGGAUAUCCCUUUAAAAAAAAAAAAGGAGAAGGGUGAAAAA [Nob's Hobby 4 - Jieux - Same State 1] ; output its category
Ans. lo

Qu. Band for GAAAAACAUGAGGAUCACCCAUGUGUAAACACGGGAGGAUAUACAAAGACGUAAGUCAAAGUAGAAGGCCUAAAAG [Garnet 39] ?
Ans. hi

Qu. Classify this sequence: AACAGACAUGAGGAUCACCCAUGUAGAAUUAUGGGAGGAUAUACAAAGACGAGAGUCAGAGUAGAAGGCCUAGGAG [salish99-ss1-162]
Ans. med

Qu. # bin label for AACAAACAUGAGGAUCACCCAUGUAGAAACAUGGGAGGAUAUACGAAGACGAAAGUCAAAGUAGAAGGCCUAAAAA [Garnet 91]
Ans. med

Qu. Kindly identify the class of AACAAUCUAUCUGAGGAUAUGUGUCAAAAGACAUGAGGAUCACCCAUGUAAAAACAUGGGAAAACACAGAAGGCAGAUAGAUUGA [SS2: 1151] .
Ans. hi
